# measured.target: Vasopressin V2 receptor (Rattus norvegicus)
# Sequence (Q00788 whole entry): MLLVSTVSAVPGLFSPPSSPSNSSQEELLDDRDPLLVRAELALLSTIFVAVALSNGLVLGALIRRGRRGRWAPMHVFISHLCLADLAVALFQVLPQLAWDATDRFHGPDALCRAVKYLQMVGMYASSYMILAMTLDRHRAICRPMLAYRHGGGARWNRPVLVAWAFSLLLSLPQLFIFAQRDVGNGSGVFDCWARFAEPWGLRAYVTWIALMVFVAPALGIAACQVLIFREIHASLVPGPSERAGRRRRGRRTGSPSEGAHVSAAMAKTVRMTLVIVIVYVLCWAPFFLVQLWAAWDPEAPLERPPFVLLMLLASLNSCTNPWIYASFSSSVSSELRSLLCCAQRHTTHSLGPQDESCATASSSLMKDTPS
pIC50: −log10 of the molar value.
readout.name: pIC50

Below, 4 molecules whose answers are already recorded.
molecule="CC1NC(=O)N([C@H]2C[C@H]3CC[C@]2(CS(=O)(=O)N2CCC4(CCc5ccccc54)CC2)C3(C)C)C1=O (some centres undefined)" meas_value=5.68
molecule="CNC1CCN([C@H]2C[C@H]3CC[C@]2(CS(=O)(=O)N2CCC4(CCc5ccccc54)CC2)C3(C)C)C1=O (some centres undefined)" meas_value=4.92
molecule=CC1(C)[C@@H]2CC[C@@]1(CS(=O)(=O)N1CCC3(CCc4ccccc43)CC1)[C@@H](N1C(=O)CN(Cc3c[nH]cn3)C1=O)C2 meas_value=6.03
molecule=CC1(C)[C@@H]2CC[C@@]1(CS(=O)(=O)N1CCC3(CCc4ccccc43)CC1)[C@@H](NC(=O)Cn1cnnn1)C2 meas_value=5.00

A = CC1(C)[C@@H]2CC[C@@]1(CS(=O)(=O)N1CCC3(C=Cc4ccccc43)CC1)[C@@](O)(CNC(=O)C(CCS(C)(=O)=O)NC(=O)Cc1c[nH]cn1)C2 (some centres undefined)
B = Cn1cnc(CC(=O)N(CCS(C)(=O)=O)[C@H]2C[C@H]3CC[C@]2(CS(=O)(=O)N2CCC4(CCc5ccccc54)CC2)C3(C)C)c1
C = CC1(C)[C@@H]2CC[C@@]1(CS(=O)(=O)N1CCC3(C=Cc4ccccc43)CC1)[C@@](O)(CNC(=O)Cc1cccnc1)C2
D = CCN(CC)C(CCS(C)(=O)=O)C(=O)N[C@H]1C[C@H]2CC[C@]1(CS(=O)(=O)N1CCC3(CCc4ccccc43)CC1)C2(C)C (some centres undefined)
E = CC1(C)[C@@H]2CC[C@@]1(CS(=O)(=O)N1CCC3(C=Cc4ccccc43)CC1)[C@@](O)(CNC(=O)c1ccncc1)C2
## Input Sequence the entries by pIC50, beginning with the highest number. The labels, placed in the requested order, form the answer.
## Output B, D, A, C, E
(B: 6.19, D: 5.82, A: 5.60, C: 5.35, E: 5.00)

I = CC(C)[C@H](NC(=O)Cc1c[nH]cn1)C(=O)NC[C@@]1(O)C[C@H]2CC[C@]1(CS(=O)(=O)N1CCC3(C=Cc4ccccc43)CC1)C2(C)C
II = CC1(C)[C@@H]2CC[C@@]1(CS(=O)(=O)N1CCC3(C=Cc4ccccc43)CC1)[C@@](O)(CNC(=O)c1n[nH]c(N)n1)C2
III = CC1(C)[C@@H]2CC[C@@]1(CS(=O)(=O)N1CCC3(CCc4ccccc43)CC1)[C@@H](NC(=O)[C@H](CCC(N)=O)NC(=O)CCN)C2
## Input // smallest pIC50 at index 0, largest at the end Would you mind listing the labels in the order asked for?
## Output II, III, I
